test target: B. subtilis DAPA aminotransferase (Bacillus subtilis, UniProt P53555)
Construct: A cell free extract prepared from a B. subtilis strain deleted for the bio operon but containing multiple copies (4-6) of the B. subtilis bioA gene; made in house; host or cells: B. subtilis BI611 (Δbio:cat, bpr:[P26bioA]4-6), cell-free extract (dialyzed for A1, crude for A2)
Sequence (P53555 1-448): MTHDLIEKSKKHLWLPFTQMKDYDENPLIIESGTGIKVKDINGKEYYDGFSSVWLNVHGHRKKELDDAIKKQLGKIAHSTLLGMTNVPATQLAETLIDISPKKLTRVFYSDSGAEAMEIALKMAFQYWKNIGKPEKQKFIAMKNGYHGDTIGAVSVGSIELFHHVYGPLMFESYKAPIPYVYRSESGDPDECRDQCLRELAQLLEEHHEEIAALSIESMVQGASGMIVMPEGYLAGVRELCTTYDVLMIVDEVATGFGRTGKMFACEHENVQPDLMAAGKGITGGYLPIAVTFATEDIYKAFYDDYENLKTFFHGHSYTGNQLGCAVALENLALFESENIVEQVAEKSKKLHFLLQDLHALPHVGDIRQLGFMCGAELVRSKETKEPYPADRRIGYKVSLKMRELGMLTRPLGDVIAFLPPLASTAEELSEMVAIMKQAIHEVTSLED
Assay type: biochemical
setup conditions: compound added to extract of BI611
Can you tell me DAPA aminotransferase specfic activity for the items I'm about to list?
Express it in nmol/min/mg; write the number only.

Could you share what DAPA aminotransferase specfic activity was measured for `NCCCC[C@@H](N)C(=O)O` , tested on B. subtilis DAPA aminotransferase (Bacillus subtilis, UniProt P53555)?
0.19

Could you share what DAPA aminotransferase specfic activity was measured for `N[C@H](CCC[C@H](N)C(=O)O)C(=O)O` , tested on B. subtilis DAPA aminotransferase (Bacillus subtilis, UniProt P53555)?
0

Could you share what DAPA aminotransferase specfic activity was measured for NCCCCC(N)C(=O)O (racemic) , tested on B. subtilis DAPA aminotransferase (Bacillus subtilis, UniProt P53555)?
0.35

Could you share what DAPA aminotransferase specfic activity was measured for `CC(=O)NCCCC[C@H](N)C(=O)O` , tested on B. subtilis DAPA aminotransferase (Bacillus subtilis, UniProt P53555)?
0

Could you share what DAPA aminotransferase specfic activity was measured for `CC(=O)N[C@@H](CCCCN)C(=O)O` , tested on B. subtilis DAPA aminotransferase (Bacillus subtilis, UniProt P53555)?
0

Could you share what DAPA aminotransferase specfic activity was measured for `CNCCCC[C@H](N)C(=O)O` , tested on B. subtilis DAPA aminotransferase (Bacillus subtilis, UniProt P53555)?
0
